- System: primary human mesenchymal stem cells (hMSCs)
- EXPERIMENT_DESCRIPTION: Chondrogenesis screening using primary human mesenchymal stem cells
- Type: cell-based
- CONDITION_PARAMETERS: Homo sapiens, Mesenchymal stem cells, hMSC chondrogenesis; concentration required to induce 50% levels of chondrogenesis with TGF-β3 as positive control; read-out: Conc (nM) of 50% TGF-β3 activity
OBSERVATION_TYPE: EC50 (nM)

Example cases with answers are listed next.
COMPOUND | EC50, nM
Nc1cncc(-c2cnc3[nH]nc(-c4cc5c(-c6ccncc6)nccc5[nH]4)c3c2)c1 [compound 378] | 30
CN1CCN(c2cncc3[nH]c(-c4n[nH]c5ccc(-c6cncc(N)c6)nc45)nc23)CC1 [compound 215] | 30
CN(C)Cc1cncc(-c2ccc3[nH]nc(-c4nc5c(-c6cccc(F)c6)cccc5[nH]4)c3n2)c1 [compound 136] | 30
CCC(=O)Nc1cncc(-c2cc3c(-c4cc5c(-c6cccc(F)c6)nccc5[nH]4)n[nH]c3cn2)c1 [compound 306] | 30
CC(C)NC(=O)c1n[nH]c2ccc(-c3cncc(CN4CCC(F)(F)CC4)c3)cc12 [compound 75] | 2700
CC(C)Nc1cncc(-c2ccc3[nH]nc(-c4nc5c(-c6cc(F)cc(NCCN(C)C)c6)nccc5[nH]4)c3c2)c1 [compound 282] | 30
O=C(Nc1cncc(-c2ccc3[nH]nc(-c4cc5ccncc5[nH]4)c3n2)c1)C1CCCC1 [compound 430] | 30
COc1ccc(NC(=O)c2n[nH]c3ccc(-c4cncc(CN5CCCCC5)c4)cc23)cn1 [compound 81] | 300
CN1CCN(c2nccc3[nH]c(-c4n[nH]c5ccc(-c6cncc(N)c6)nc45)nc23)CC1 [compound 214] | 100
FC1(F)CCN(Cc2cncc(-c3ccc4[nH]nc(-c5cc6cccnc6[nH]5)c4n3)c2)C1 [compound 447] | 100

1: Nc1cncc(-c2ccc3[nH]nc(-c4nc5c(-c6ccccc6F)cccc5[nH]4)c3n2)c1 [compound 166]
2: Oc1cncc(-c2ccc3[nH]nc(-c4nc5c(-c6cccc(F)c6)ccnc5[nH]4)c3n2)c1 [compound 146]
Return label of the item with the larger EC50. Candidates: 1 , 2 . Respond using the label that marks the chosen record.
1
(1: 30 nM, 2: 2.29 nM)
